This collection of values is drawn from patent US5998438A.

The entries below are paired with their reported pEC50.
subject.of.test: 5-HT1D-like receptor (Oryctolagus cuniculus, UniProt P49144)
Construct: Ring segments of the vein (4-5 mm in length) were cut and the endothelium gently removed; from tissue; host or cells: saphenous vein rings (endothelium removed) of male New Zealand White rabbits
Sequence (P49144 whole entry): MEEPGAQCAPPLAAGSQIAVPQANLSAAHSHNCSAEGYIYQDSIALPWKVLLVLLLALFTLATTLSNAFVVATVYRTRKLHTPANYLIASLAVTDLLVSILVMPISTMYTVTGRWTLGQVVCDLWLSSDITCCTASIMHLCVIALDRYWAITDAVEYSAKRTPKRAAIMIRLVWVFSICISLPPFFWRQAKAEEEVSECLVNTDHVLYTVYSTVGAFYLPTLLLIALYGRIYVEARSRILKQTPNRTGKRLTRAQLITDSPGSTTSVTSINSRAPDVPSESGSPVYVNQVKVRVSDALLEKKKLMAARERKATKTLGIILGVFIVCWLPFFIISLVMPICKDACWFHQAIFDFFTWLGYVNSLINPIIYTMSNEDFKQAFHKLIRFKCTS
test.summary: Agonist assay: contraction of rabbit isolated saphenous vein (5-HT1D-like receptor agonist activity)
Set-up: species or system rabbit (male New Zealand White)
pEC50: −log10 of the molar value.
property.label: pEC50

INSERT INTO results (compound, measured_value) VALUES
  ('CN(C)CCc1c[nH]c2ccc(C3CCCCC3)cc12 [Example 17a]', 6.60),
  ('CN(C)CCc1c[nH]c2ccc(C3=CCCCC3)cc12 [Example 9a]', 6.02),
  ('CN(C)CCc1c[nH]c2ccc(C3CCCCO3)cc12 (stereo not drawn) [Example 9b]', 6.80);

* * *

subject.of.test: 5-HT1D-like receptor (Oryctolagus cuniculus)
Construct: Ring segments of the vein (4-5 mm in length) were cut and the endothelium gently removed; from tissue; host or cells: saphenous vein rings (endothelium removed) of male New Zealand White rabbits
test.summary: Agonist assay: contraction of rabbit isolated saphenous vein (5-HT1D-like receptor agonist activity)
Parameters: species or system rabbit (male New Zealand White)
measurement.conditions: rabbit isolated saphenous vein ring segments; concentration causing 50% of the maximum contraction effected by the compound; with prazosin, idazoxan and indomethacin; 37° C., pH 7.4; read-out: EC50
property.label: EC50 (nM)

INSERT INTO results (compound, subject_of_test, measured_value) VALUES
  ('CN1CCC[C@H]1Cc1c[nH]c2ccc(C3CCN(C(=O)OC(C)(C)C)CC3)cc12 [Example 17d]', '5-HT1D-like receptor (Oryctolagus cuniculus)', 750),
  ('C1=C(c2ccc3[nH]cc(CCN4CCCC4)c3c2)CCN(Cc2ccccc2)C1', '5-HT1D-like receptor (Oryctolagus cuniculus)', 220);
